Please provide measured growth inhibition for the entries that follow.
assay: NCI Yeast Anticancer Drug Screen. Data for the mec2-1 strain (AID 157); settings: S. cerevisiae mec2-1 strain, at 5.0 µM (retest, dose inferred, filed as 0.5), hits give high values
This is part of a sample that, as a whole, favours compounds with a hit. Of some 79,000 tested, about 15% had one in any assay.
Answer with a number only, understood to be in %.

Which growth inhibition reading was recorded for the compound Cc1c(-c2ccccn2)ccc2ccccc12 ? 1

Same thing, different compound: Nc1nc2ccc(NCc3ccc(C(=O)NC(CCC(=O)O)C(=O)O)cc3)cc2c(=O)[nH]1 (centres undefined) -3

Same thing, different compound: N#CNC(N)=Nc1cc2ccccc2c2ccccc12 48

Same thing, different compound: CCc1c(Cl)c(C)cc(O)c1Cl 46

Same thing, different compound: O=C1OC(C2=CC(=O)c3ccccc3C2=O)C(Cl)=C1Cl (centres undefined) 1

Same thing, different compound: N#CC(=Nc1ccccc1F)Nc1ccccc1F -4

Same thing, different compound: O=Cc1ccc2c(c1)C(=O)c1ccccc1C2=O 6

Same thing, different compound: COc1cccc2c1C(=O)c1c(O)c3c(c(O)c1C2=O)C[C@@](O)(C(C)=O)C[C@@H]3OC1CC(OC(C)=O)C(OC(C)=O)C(C)O1 (some centres undefined) 13

Same thing, different compound: CCC1(OC(=O)CN2CCN(CCO)CC2)C(=O)OCc2c1cc1n(c2=O)Cc2cc3ccccc3nc2-1 (centres undefined) 4

====

Please provide measured growth inhibition for the entries that follow.
assay: NCI Yeast Anticancer Drug Screen. Data for the rad50 strain (AID 155);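 note: 0% = growth of vehicle-only cultures of the same strain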; settings: S. cerevisiae rad50 strain growth inhibition; at 11.0 µM; hits give high values
This is part of a sample that, as a whole, favours compounds with a hit. Of some 79,000 tested, about 15% had one in any assay.
Answer with a number only, understood to be in %.

Which growth inhibition reading was recorded for the molecule Cc1cc(C(C)(C)CC(C)(C)C)ccc1O ? 38

Same thing, different molecule: COc1ccc(/C=C2\NC(=S)N(/C=C3\C(=O)Oc4ccccc4C3=O)C2=O)cc1 -17

Same thing, different molecule: C[Si](C)(C)/C=C/CCNC(C#N)c1ccccc1 (stereo not given) 47

Same thing, different molecule: CNCCCNc1c2ccccc2nc2cccc([N+](=O)[O-])c12 91

Same thing, different molecule: COc1ccc2c(c1)n([O-])c1ccccc1[n+]2=O 91

====

Please provide measured growth inhibition for the entries that follow.
assay: NCI Yeast Anticancer Drug Screen. Data for the rad50EPP+ strain (AID 151);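 note: 0% = growth of vehicle-treated control cultures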; details: S. cerevisiae rad50 mutant strain, at 3.7 µM, hits give high values
Compounds without any hit were thinned out: in the full panel of roughly 79,000, 15% have a hit.
Answer with a number only, understood to be in %.

Which growth inhibition reading was recorded for the compound CCC(C)(C)c1ccc(Oc2cccc(C(=O)O)c2)cc1 ? 18

Same thing, different compound: COc1cc(/C=C2\NC(=O)N(/C=C3\C(=O)Oc4ccccc4C3=O)C2=O)ccc1O -1

Same thing, different compound: Brc1ccccc1-c1ncc(-c2ccccc2)o1 10

Same thing, different compound: CCOC(=O)CC1(C(=O)OCC)c2[nH]c3ccccc3c2CCN1Cc1ccccc1 (stereo unspecified) -7

Same thing, different compound: CC(=O)ON=C1C=CC(=C(C#N)c2ccc(Cl)cc2)C=C1 38

Same thing, different compound: O=C1NC(SSC2=NNC3(C(=O)N2)c2ccccc2-c2ccccc23)=NNC12c1ccccc1-c1ccccc12 9

Same thing, different compound: O=C(O)c1cc2ccccc2c2c1C(=O)c1ccccc1-2 -36

Same thing, different compound: CC(=O)Nc1ccc2c(c1)-c1ccccc1C2=O -4

Same thing, different compound: CNC(=O)OCc1c(COC(=O)NC)c(-c2ccc(Cl)c(Cl)c2)n2c1SCC2 -3

Same thing, different compound: CCOc1ccccc1N=Cc1c2ccccc2cc2ccccc12 24

Same thing, different compound: COc1nc2c(c(=O)n1C)N=C(c1ccccc1)[C@H](C(CC(=O)c1ccccc1)c1ccccc1)C(c1ccccc1)N2 (stereo partly specified) -30

====

test: NCI Yeast Anticancer Drug Screen. Data for the rad50 strain (AID 155);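 note: 0% = growth of vehicle-only cultures of the same strain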; conditions: S. cerevisiae rad50 strain growth inhibition; at 5.0 µM (retest, dose inferred, filed as 0.5); hits give high values
This is part of a sample that, as a whole, favours compounds with a hit. Of some 79,000 tested, about 15% had one in any assay.
Please provide measured growth inhibition for the entries that follow.
Answer with a number only, understood to be in %.

Which growth inhibition reading was recorded for the molecule COc1cc(/C=N/Nc2nnc3c4ccccc4c4ncccc4c3n2)cc(OC)c1OC ? 4

Same thing, different molecule: COC1CCC(O)C(/C=C/[N+](=O)[O-])C1 (stereo unspecified) 50

Same thing, different molecule: CSc1nnc(SC)nn1 51

Same thing, different molecule: CNC(=O)OCc1c(COC(=O)NC)c2n(c1C)-c1ccc(OC)cc1CCC2 25

Same thing, different molecule: CC(=O)OCC1OC2OC(=O)NC2C(OC(C)=O)C1OC(C)=O (stereo unspecified) 5

Same thing, different molecule: COc1ccc2[nH]cc([C@@H]3C4CCC(C4)[C@H]3NCc3cccc(CN[C@H]4C5CCC(C5)[C@@H]4c4c[nH]c5ccc(OC)cc45)c3)c2c1 -15

Same thing, different molecule: C[C@]12CC[C@H](O)CC1=CC[C@@H]1C2CC[C@]2(C)C(=O)NC(=O)CC12 (stereo partly specified) -4

Same thing, different molecule: Brc1ccccc1-c1ncc(-c2ccccc2)o1 42

Same thing, different molecule: O=[N+]([O-])c1cc(S(=O)(=O)Nc2ccccc2)ccc1Nc1ccccc1 51

Same thing, different molecule: CCCCCCCCCCCCCCCCOP(=O)(O)OCC(N)C(=O)O (stereo unspecified) -25

Same thing, different molecule: NNC(=O)CCc1cc2ccccc2c2ccccc12 19

Same thing, different molecule: O=C1CC(=O)c2ccccc21 3

Same thing, different molecule: CC(C)(C)CC(C)(C)c1cc(O)c(O)c(CN2CCCCC2)c1 5

Same thing, different molecule: COc1ccc(/C=C/C(=O)c2ccccc2)cc1OC 22

Same thing, different molecule: c1ccc2[nH]c(-c3cscn3)nc2c1 -19

Same thing, different molecule: Clc1ccc(NCNC2Nc3ccccc3N2)cc1Cl 4

Same thing, different molecule: Cc1cc(C(C)(C)C)c(OCCCN2CCOCC2)c(C(C)(C)C)c1 5

Same thing, different molecule: CC1(C)CC(=O)C(/C=N/c2nc(-c3ccccc3)cs2)=C(O)C1 -3

Same thing, different molecule: Cc1cc(=O)oc2c(C)c3occc(=O)c3cc12 24

Same thing, different molecule: COc1cccc2c1C(=O)c1c(O)c3c(c(O)c1C2=O)CC(O)(C(O)CO)CC3OC1CC(N2CCOCC2)C(O)C(C)O1 (stereo unspecified) 98

Same thing, different molecule: CN1CCN(C(=O)/C=C/C(=O)c2ccccc2)CC1 9

Same thing, different molecule: CCOC(=O)c1[nH]n(-c2ccccc2)c(=O)c1C=NC(=S)C(N)=S -36

Same thing, different molecule: OCc1ccccc1Cc1ccccc1 7

Same thing, different molecule: Oc1ccc(O)c(Cc2ccccc2)c1 77

Same thing, different molecule: CCOC1(c2cccc([N+](=O)[O-])c2)c2ccccc2Oc2ccccc21 41

Same thing, different molecule: O=[N+]([O-])c1cc(F)c(F)cc1Sc1cc(F)c(F)cc1[N+](=O)[O-] 66

====

assay: NCI Yeast Anticancer Drug Screen. Data for the bub3 strain (AID 167); conditions: S. cerevisiae bub3 mutant strain, at 1.2 µM, hits give high values
This is part of a sample that, as a whole, favours compounds with a hit. Of some 79,000 tested, about 15% had one in any assay.
Please provide measured growth inhibition for the entries that follow.
Answer with a number only, understood to be in %.

Which growth inhibition reading was recorded for the compound CCCC/C=C/C(C)(C(=O)OCC)C(=O)OCC ? -6

Same thing, different compound: CCc1nc2ccc(NCCN(C)C)c3c(=O)c4ccccc4n1c23 9

Same thing, different compound: CC(C)(C)c1ccc(NS(=O)(=O)c2ccc(N)cc2)cc1 0

Same thing, different compound: CCN(CC)CCNc1ccc2ncn3c4cc(OC)c(OC)c(=O)c4c(O)c1c23 -1

Same thing, different compound: O=C1C=C(Cl)C(=O)C(c2ccc(Cl)cc2)=C1 5

Same thing, different compound: Oc1cccc2cc(Cl)cnc12 -21

Same thing, different compound: CCCCCCC(O)CNCc1ccnc2ccc(OC)cc12 (stereo not given) 1

Same thing, different compound: COC(=O)Nc1cn2ccc(C(Cl)=C(Cl)Cl)cc2n1 -8

Same thing, different compound: COc1cccc2c1C(=O)c1c(O)c3c(c(O)c1C2=O)CC(O)(C(O)CO)CC3OC1CC(N2CCOCC2)C(O)C(C)O1 (stereo not given) 98

Same thing, different compound: Cc1ccc(S/C(=C\C(=O)O)c2ccccc2)cc1 -4
